System: Kidney
Protocol summary: Biodistribution in kidney of B16F0 tumor bearing C57BL/6J mouse at 0.37-0.74 MBq, iv after 1 hr
Assay type: ADME, organism-based
Measurement parameters: in vivo
Each item that follows carries a reported Drug uptake.
Metric name: Drug uptake (% ID/g)

INSERT INTO assay_data (compound, observed_value) VALUES
  ('CCCN(CCC)CCCCNC(=O)c1ccc([123I])cc1', 8.6),
  ('O=C(NC1CCN(CCF)CC1)c1ccc(I)cc1', 8.7),
  ('O=C(NCCCCN1CC2CCC1C2)c1ccc([123I])cc1 (centres undefined)', 15.2),
  ('CCCCN(C)CCCCNC(=O)c1cc([123I])c(NC(C)=O)cc1OC', 21.6),
  ('CCN(CC)CCNC(=O)c1cc([123I])c(NC(C)=O)cc1OC', 2.3),
  ('CCCCNCCCCNC(=O)c1cc([123I])c(NC(C)=O)cc1OC', 3.26),
  ('CCCN(CCC)CCCCNC(=O)c1cc([123I])c(NC(C)=O)cc1OC', 14.1),
  ('CCN(CC)CCNC(=O)c1cc([123I])c(NS(C)(=O)=O)cc1OC', 1.3),
  ('CCN(CC)CCNC(=O)c1ccccc1[123I]', 6.8);

The reported measurements were obtained from ChEMBL document CHEMBL1146219.
